test: Ocular tissue concentrations, 0.3% Compound-I Tris-based suspension twice daily 30 days; type: in vivo, Dutch-Belted rabbits; conditions: Dutch-Belted, rabbit, peripheral retina, topical; 0.3% Tris-based suspensions with and without benzylalkonium chloride, twice daily, 1 hour after first daily dose on day 30; read-out: Mean ocular tissue concentration, peripheral retina
READOUT KIND: concentration at 1 h

Please fill in: concentration at 1 h reported for Cl.NC(=O)c1c(OCc2c(F)cc(Br)cc2F)nsc1NC(=O)NCCCCN1CCCC1 [Compound-I, hydrochloride] = 81.9 to 86.8 nM

---

experiment: Ocular fluid and tissue concentrations, 0.4% Compound-I cyclodextrin solutions (Example 7, 24-day study); assay type: in vivo, Dutch-Belted rabbits; settings: Dutch-Belted, rabbit, cornea, topical, 0.4 %
READOUT KIND: concentration at 1 h

Please fill in: concentration at 1 h reported for Cl.NC(=O)c1c(OCc2c(F)cc(Br)cc2F)nsc1NC(=O)NCCCCN1CCCC1 [Compound-I, hydrochloride] = 6.49 to 30 µM

---

test: Ocular fluid and tissue concentrations, 0.4% Compound-I cyclodextrin solutions (Example 7, 24-day study); format: in vivo, Dutch-Belted rabbits; conditions: Dutch-Belted, rabbit, central choroid, topical, 0.4 % (4 mg/mL), 0.4% Ophthalmic Solution (KLEPTOSE HP), Twice Daily 24 days; read-out: Central Choroid [Compound I]
READOUT KIND: concentration at 1 h (nM)
Please reply with the bare figure in nM and do not write the unit itself.

Please fill in: concentration at 1 h reported for Cl.NC(=O)c1c(OCc2c(F)cc(Br)cc2F)nsc1NC(=O)NCCCCN1CCCC1 [Compound-I, hydrochloride] = 259

---

assay: Solubility of Compound-I drug substance; type: physicochemical; conditions: 0.1N HCl, simulated gastric fluid
READOUT KIND: solubility

Please fill in: solubility reported for Cl.NC(=O)c1c(OCc2c(F)cc(Br)cc2F)nsc1NC(=O)NCCCCN1CCCC1 = 0.04 mg/mL

---

test: Ocular tissue concentrations, 0.3% Compound-I Tris-based suspension twice daily 30 days; type: in vivo, Dutch-Belted rabbits; conditions: Dutch-Belted, rabbit, aqueous humor, topical; 0.3% Tris-based suspensions with and without benzylalkonium chloride, twice daily, 1 hour after first daily dose on day 30; read-out: Mean ocular tissue concentration, aqueous humor
READOUT KIND: concentration at 1 h

Please fill in: concentration at 1 h reported for Cl.NC(=O)c1c(OCc2c(F)cc(Br)cc2F)nsc1NC(=O)NCCCCN1CCCC1 [Compound-I, hydrochloride] = 1.27 to 1.45 nM

---

experiment: Ocular fluid and tissue concentrations, 0.4% Compound-I cyclodextrin solutions (Example 7, 24-day study); format: in vivo, Dutch-Belted rabbits; conditions: Dutch-Belted, rabbit, cornea, topical, 0.4 % (4 mg/mL), 30 μL/eye, Average concentration of Compound-I, Cornea, Group 10: 0.4% Compound-I in 4.88% CAPTISOL, 0.142% phosphate; 30 μL/eye, 2 doses per day
READOUT KIND: concentration at 1 h (µM)
Please reply with the bare figure in µM and do not write the unit itself.

Please fill in: concentration at 1 h reported for Cl.NC(=O)c1c(OCc2c(F)cc(Br)cc2F)nsc1NC(=O)NCCCCN1CCCC1 [Compound-I, hydrochloride] = 6.49

---

test: Ocular tissue concentrations, 0.3% Compound-I Tris-based suspension twice daily 30 days; assay type: in vivo, Dutch-Belted rabbits; details: Dutch-Belted, rabbit, cornea, topical; 0.3% Tris-based suspensions with and without benzylalkonium chloride, twice daily, 1 hour after first daily dose on day 30; read-out: Mean ocular tissue concentration, cornea
READOUT KIND: concentration at 1 h

Please fill in: concentration at 1 h reported for Cl.NC(=O)c1c(OCc2c(F)cc(Br)cc2F)nsc1NC(=O)NCCCCN1CCCC1 [Compound-I, hydrochloride] = 2690 to 3100 nM

---

Assay: Ocular fluid and tissue concentrations, 0.4% Compound-I cyclodextrin solutions (Example 7, 24-day study)
Type: in vivo, Dutch-Belted rabbits
Settings: Dutch-Belted, rabbit, central choroid, topical, 0.4 % (4 mg/mL), 30 μL/eye, Average concentration of Compound-I, Central Choroid, Group 9: 0.4% Compound-I in […] KLEPTOSE HPB, 0.142% phosphate; 30 μL/eye, 2 doses per day
Description: The ocular solution of Compound-I comprising cyclodextrin was prepared and tested in different groups of animals.
READOUT KIND: concentration at 1 h
Respond with a number, then the unit of measure.

Please fill in: concentration at 1 h reported for Cl.NC(=O)c1c(OCc2c(F)cc(Br)cc2F)nsc1NC(=O)NCCCCN1CCCC1 [Compound-I, hydrochloride] = 259 nM

---

assay: Ocular tissue concentrations, 0.3% Compound-I Tris-based suspension twice daily 30 days; assay type: in vivo, Dutch-Belted rabbits; details: Dutch-Belted, rabbit, cornea, topical, 0.3 % w/v; 0.3% Tris Suspension, Twice Daily 30 days; read-out: Cornea [Compound I]
READOUT KIND: concentration at 1 h (nM)
Please reply with the bare figure in nM and do not write the unit itself.

Please fill in: concentration at 1 h reported for Cl.NC(=O)c1c(OCc2c(F)cc(Br)cc2F)nsc1NC(=O)NCCCCN1CCCC1 [Compound-I, hydrochloride] = 2690

---

test: Solubility of Compound-I drug substance; format: physicochemical; details: aqueous buffer; pH 7.5 (0.05M NaH2PO4)
READOUT KIND: solubility (µg/mL)
Please reply with the bare figure in µg/mL and do not write the unit itself.

Please fill in: solubility reported for Cl.NC(=O)c1c(OCc2c(F)cc(Br)cc2F)nsc1NC(=O)NCCCCN1CCCC1 [Compound-I] = 1000

---

target: recombinant FGFR-2 tyrosine kinase (Homo sapiens (Human)); experiment: Inhibition of recombinant FGFR-2 tyrosine kinase using exogenous substrate
Sequence (P21802 22-821): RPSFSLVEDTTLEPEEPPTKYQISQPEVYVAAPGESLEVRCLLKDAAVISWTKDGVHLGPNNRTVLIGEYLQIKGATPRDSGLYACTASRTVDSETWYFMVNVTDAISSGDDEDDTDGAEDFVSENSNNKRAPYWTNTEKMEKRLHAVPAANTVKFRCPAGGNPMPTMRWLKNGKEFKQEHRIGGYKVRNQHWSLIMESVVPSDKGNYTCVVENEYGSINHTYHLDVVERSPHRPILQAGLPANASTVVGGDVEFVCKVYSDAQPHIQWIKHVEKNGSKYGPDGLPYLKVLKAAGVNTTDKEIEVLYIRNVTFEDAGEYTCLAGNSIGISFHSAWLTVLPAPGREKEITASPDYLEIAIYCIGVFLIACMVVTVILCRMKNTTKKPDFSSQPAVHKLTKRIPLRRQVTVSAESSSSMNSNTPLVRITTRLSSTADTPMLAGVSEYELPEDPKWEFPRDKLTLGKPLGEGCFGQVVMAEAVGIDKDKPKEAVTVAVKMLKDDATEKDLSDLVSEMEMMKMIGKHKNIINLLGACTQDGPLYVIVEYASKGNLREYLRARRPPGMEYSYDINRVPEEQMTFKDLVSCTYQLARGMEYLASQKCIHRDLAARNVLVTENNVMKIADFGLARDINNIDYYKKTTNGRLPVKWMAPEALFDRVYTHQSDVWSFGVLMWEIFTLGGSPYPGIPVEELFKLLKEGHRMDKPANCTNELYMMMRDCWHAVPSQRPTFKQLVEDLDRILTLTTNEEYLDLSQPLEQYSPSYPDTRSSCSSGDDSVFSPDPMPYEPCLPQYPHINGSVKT
READOUT KIND: IC50 (nM)
Please reply with the bare figure in nM and do not write the unit itself.

Please fill in: IC50 reported for Cl.NC(=O)c1c(OCc2c(F)cc(Br)cc2F)nsc1NC(=O)NCCCCN1CCCC1 [Compound-I, hydrochloride] = 8.79

---

assay: Ocular fluid and tissue concentrations, 0.4% Compound-I cyclodextrin solutions (Example 7, 24-day study); assay type: in vivo, Dutch-Belted rabbits; settings: Dutch-Belted, rabbit, central retina, topical, 0.4 % (4 mg/mL), 30 μL/eye, Average concentration of Compound-I, Central Retina, Group 11: 0.4% Compound-I in 4.88% CAPTISOL, […] phosphate; 30 μL/eye, 2 doses per day
READOUT KIND: concentration at 1 h (nM)
Please reply with the bare figure in nM and do not write the unit itself.

Please fill in: concentration at 1 h reported for Cl.NC(=O)c1c(OCc2c(F)cc(Br)cc2F)nsc1NC(=O)NCCCCN1CCCC1 [Compound-I, hydrochloride] = 101

---

experiment: Ocular fluid and tissue concentrations, 0.4% Compound-I cyclodextrin solutions (Example 7, 24-day study); type: in vivo, Dutch-Belted rabbits; conditions: Dutch-Belted, rabbit, cornea, topical, 0.4 % (4 mg/mL), 30 μL/eye, Average concentration of Compound-I, Cornea, Group 11: 0.4% Compound-I in 4.88% CAPTISOL, […] phosphate; 30 μL/eye, 2 doses per day
READOUT KIND: concentration at 1 h (µM)
Please reply with the bare figure in µM and do not write the unit itself.

Please fill in: concentration at 1 h reported for Cl.NC(=O)c1c(OCc2c(F)cc(Br)cc2F)nsc1NC(=O)NCCCCN1CCCC1 [Compound-I, hydrochloride] = 30

---

assay: Ocular fluid and tissue concentrations, 0.4% Compound-I cyclodextrin solutions (Example 7, 24-day study); type: in vivo, Dutch-Belted rabbits; conditions: Dutch-Belted, rabbit, aqueous humor, topical, 0.4 % (4 mg/mL), 30 μL/eye, Average concentration of Compound-I, Aqueous Humor, Group 8: 0.4% Compound-I in 8.41% KLEPTOSE HPB, 0.142% phosphate; 30 μL/eye, 2 doses per day
READOUT KIND: concentration at 1 h

Please fill in: concentration at 1 h reported for Cl.NC(=O)c1c(OCc2c(F)cc(Br)cc2F)nsc1NC(=O)NCCCCN1CCCC1 [Compound-I, hydrochloride] = 6.56 nM

---

assay: Solubility of Compound-I drug substance; type: physicochemical; conditions: tetrahydrofuran, organic solvent or mixture
READOUT KIND: solubility (µg/mL)
Please reply with the bare figure in µg/mL and do not write the unit itself.

Please fill in: solubility reported for Cl.NC(=O)c1c(OCc2c(F)cc(Br)cc2F)nsc1NC(=O)NCCCCN1CCCC1 = 20

---

test: Solubility of Compound-I drug substance; type: physicochemical; conditions: hexanes, organic solvent or mixture
READOUT KIND: solubility

Please fill in: solubility reported for Cl.NC(=O)c1c(OCc2c(F)cc(Br)cc2F)nsc1NC(=O)NCCCCN1CCCC1 [Compound-I] = < 0.01 mg/mL

---

assay: 1- to 5-day PK with topical ocular Compound-I formulations (Example 5); conditions: Dutch Belted, rabbit, aqueous humor, Average Concentration of Compound-I, Dutch Belted rabbits, topical ocular q.d. or b.i.d., 24 hr post-dose, Group per row, LLOQ 0.000903 μM
READOUT KIND: concentration at 24 h (nM)
Please reply with the bare figure in nM and do not write the unit itself.

Please fill in: concentration at 24 h reported for Cl.NC(=O)c1c(OCc2c(F)cc(Br)cc2F)nsc1NC(=O)NCCCCN1CCCC1 [Compound-I, hydrochloride] = 5.18
